pKi: −log10 of the molar value.
So I've got pKi readings for human PDE10A2 (Homo sapiens (Human)), take a look.
assayEndpoint: pKi

Examples with answers:
O=C(Nc1ccccc1)N1CCc2nc(-c3ccncc3)nc(NCc3ccccn3)c2C1 [Compound 1-2] ... 6.72
CC(C)CC(=O)N1CCc2nc(-c3cncc(-c4cn[nH]c4)c3)nc(N(C)Cc3ccccc3)c2C1 [Compound 1-8] ... 7.82
O=C(Nc1ccccc1)N1CCc2nc(-c3ccncc3)nc(NCCc3ccccn3)c2C1 [Compound 1-1] ... 7.32
O=C(Nc1ccccc1)N1CCc2nc(-c3ccc(F)nc3)nc(NCCc3ccccn3)c2C1 [Compound 1-6] ... 6.94

[A] O=C(Nc1ccccc1)N1CCc2nc(-c3ccncc3)nc(N3CCc4ccncc4C3)c2C1 [Compound 1-3]
[B] CC(C)CC(=O)N1CCc2nc(-c3cncc(-c4cncnc4)c3)nc(N(C)Cc3ccccc3)c2C1 [Compound 1-7]
(Q) Smaller pKi value? Options are A and B Return value: the label identifying the chosen record.
(A) A
